Reported Foxtail, Giant plant response rating is given for each of the following compounds.
# Tested on: Foxtail, Giant (giant foxtail, Setaria faberi)
# test_description: Test A postemergence, Foxtail, Giant
# Format: in vivo
# assay_conditions: Postemergence, 500 g ai/ha; visual injury vs untreated controls after approx. 10 days; 0 to 100 scale (0 no effect, 100 complete control)
# Excerpt: Seeds of plant species selected from barnyardgrass (Echinochloa crus-galli), kochia (Bassia scoparia), ragweed (common ragweed, Ambrosia artemisiifolia), Ryegrass, Italian (Italian ryegrass, Lolium multiflorum), Foxtail, Giant (giant foxtail, Setaria faberi), and pigweed (Amaranthus retroflexus) were planted into a blend of loam soil and sand and treated preemergence with a directed soil spray using test chemicals formulated in a non-phytotoxic solvent mixture which included a surfactant. […]
// no unit, no text: just the number

# example entries with known answers
| compound | Foxtail, Giant plant response rating |
| --- | --- |
| Cc1cc(C)c(C2=NOC3(CCC3)C2)cc1NS(=O)(=O)C(F)(F)F [Compound 228] | 40 |
| COC1CCCN(C(=O)c2cc(NS(=O)(=O)C(F)(F)F)c(Cl)cc2C)C1 (stereo not shown) [Compound 146] | 90 |
| Cc1cc(C)c(C2=NOC3CCCC23)cc1NS(=O)(=O)C(F)(F)F (stereo not shown) [Compound 164] | 40 |
| COc1c(Cl)nn(C)c(=O)c1-c1cc(NS(=O)(=O)C(F)(F)F)c(C)cc1C [Compound 64] | 60 |

Q: Request the reported Foxtail, Giant plant response rating associated with Cc1cc(C)c(-c2ccnn(CC(F)(F)F)c2=O)cc1NS(=O)(=O)C(F)(F)F [Compound 57]
A: 90

Q: Consider the compound shown here: Cc1cc(C)c(N(S(=O)(=O)C(F)(F)F)S(=O)(=O)C(F)(F)F)cc1C(=O)N1CCC(F)(F)CC1 [Compound 210] What is its recorded Foxtail, Giant plant response rating?
A: 30

Q: For Cc1cc(C(F)(F)F)c(C(=O)N(C)C)cc1NS(=O)(=O)C(F)(F)F [Compound 133] , what is its reported Foxtail, Giant plant response rating?
A: 10

Q: Would you kindly share the measured Foxtail, Giant plant response rating for C#CCN(CC#C)C(=O)c1cc(N(S(=O)(=O)C(F)(F)F)S(=O)(=O)C(F)(F)F)c(C)cc1C [Compound 181] ?
A: 90

Q: Given the entry Cc1cc(C)c(N(S(=O)(=O)C(F)(F)F)S(=O)(=O)C(F)(F)F)cc1C1=NOC2(CCCCC2)C1 [Compound 198] , report its measured Foxtail, Giant plant response rating.
A: 30

---

# System: ragweed (common ragweed, Ambrosia artemisiifolia)
# test_description: Test A postemergence, ragweed
# Assay type: in vivo
# assay_conditions: Postemergence, 125 g ai/ha; 0 to 100 scale (0 no effect, 100 complete control)
compounds and their reported Plant response rating, Ragweed

| structure_string | Plant response rating, Ragweed |
| --- | --- |
| Cc1cc(C)c(C2=NOC3(CCC3)C2)cc1NS(=O)(=O)C(F)(F)F | 20 |
| Cc1cc(C)c(C2=NOC3(CCSCC3)C2)cc1NS(=O)(=O)C(F)(F)F | 60 |
| Cc1cc(C)c(N(S(=O)(=O)C(F)(F)F)S(=O)(=O)C(F)(F)F)cc1C1=NOC2(CCCCCC2)C1 | 10 |

Q: Query the reported Plant response rating, Ragweed for ragweed (common ragweed, Ambrosia artemisiifolia); item: Cc1cc(C)c(N(S(=O)(=O)C(F)(F)F)S(=O)(=O)C(F)(F)F)cc1C(=O)N1CCCOCC1
A: 50

---

# System: corn (Zea mays)
# test_description: Test A postemergence, corn
# Format: in vivo
# assay_conditions: Postemergence, 500 g ai/ha; visual injury vs untreated controls after approx. 10 days; 0 to 100 scale (0 no effect, 100 complete control)
Each item that follows carries a reported Corn plant response rating.
Write no unit; give the number alone.

Examples with answers:
| compound | Corn plant response rating |
| --- | --- |
| COc1cc(C)c(NS(=O)(=O)C(F)(F)F)cc1-c1ccnn(C)c1=O [Compound 81] | 20 |
| Cc1cc(C)c(C2=NOC3(C2)CC(C)OC(C)C3)cc1NS(=O)(=O)C(F)(F)F (single isomer, unassigned) [Compound 173] | 80 |
| CCn1nc(C)cc(-c2cc(N(S(=O)(=O)C(F)(F)F)S(=O)(=O)C(F)(F)F)c(C)cc2C)c1=O [Compound 52] | 0 |

Q: State the recorded Corn plant response rating for this entry: Cc1cc(Cl)c(C2=NOC(C)(C)C2)cc1NS(=O)(=O)C(F)(F)F [Compound 183]
A: 30

Q: Using the record for COC(=O)N(c1cc(-c2ccnn(C)c2=O)c(C)cc1C)S(=O)(=O)C(F)(F)F [Compound 53] , report its Corn plant response rating.
A: 0

Q: // Corn plant response rating lookup, key: Cc1cc(C)c(N(S(=O)(=O)C(F)(F)F)S(=O)(=O)C(F)(F)F)cc1C1=NOC2(CCC3(CC2)OCCO3)C1 [Compound 136]
A: 30

Q: Would you kindly share the measured Corn plant response rating for Cc1cc(C)c(N(S(C)(=O)=O)S(=O)(=O)C(F)(F)F)cc1-c1cc(Cl)nn(C)c1=O [Compound 46] ?
A: 0

---

// Plant response rating, Galium lookup, one value per entry
# Tested on: galium (catchweed bedstraw, Galium aparine)
# test_description: Test A postemergence, galium
# Type: in vivo
# assay_conditions: Postemergence, 31 g ai/ha; 0 to 100 scale (0 no effect, 100 complete control)

Study these solved cases before continuing.
| compound | Plant response rating, Galium |
| --- | --- |
| COC1CCCN(C(=O)c2cc(N(C(C)=O)S(=O)(=O)C(F)(F)F)c(C)cc2C)C1 (stereo not shown) [Compound 93] | 80 |
| CO[C@@H]1CCCN(C(=O)c2cc(NS(=O)(=O)C(F)(F)F)c(C)cc2C)C1 [Compound 94] | 70 |
| CSc1cc(-c2cc(NS(=O)(=O)C(F)(F)F)c(C)cc2C)c(=O)n(C)n1 [Compound 36] | 20 |

// next item, Plant response rating, Galium requested
Q: Field request: Plant response rating, Galium | item: Cc1cc(Cl)c(NS(=O)(=O)C(F)(F)F)cc1C(=O)N1CCOC(C)C1 (stereo not shown) [Compound 1]
A: 90

---

Item-by-item account of Plant response rating, Ragweed
# System: ragweed (common ragweed, Ambrosia artemisiifolia)
# test_description: Test A preemergence, ragweed
# Format: in vivo
# assay_conditions: Preemergence, 500 g ai/ha; 0 to 100 scale (0 no effect, 100 complete control)
Reply: number alone, nothing else.

Example results:
| compound | Plant response rating, Ragweed |
| --- | --- |
| Cc1cc(Cl)c(C2=NOC(C)(C)C2)cc1NS(=O)(=O)C(F)(F)F [Compound 183] | 90 |
| Cc1cc(F)c(C(=O)N(C)C)cc1NS(=O)(=O)C(F)(F)F [Compound 215] | 20 |

Q: For Cc1cc(C)c(N(S(=O)(=O)C(F)(F)F)S(=O)(=O)C(F)(F)F)cc1C1=NOC2(CCC(C)(C)CC2)C1 [Compound 139] , what is its reported Plant response rating, Ragweed?
A: 30

Q: Which Plant response rating, Ragweed reading was recorded for the compound COc1cnn(C)c(=O)c1-c1cc(NS(=O)(=O)C(F)(F)F)c(C)cc1C [Compound 65] ?
A: 0

Q: I am curious: what Plant response rating, Ragweed value has been reported for CC(=O)OCN(c1cc(C2=NOC3(CCCC3)C2)c(C)cc1C)S(=O)(=O)C(F)(F)F [Compound 218] ?
A: 90

Q: Given Cc1cc(C)c(N(S(=O)(=O)C(F)(F)F)S(=O)(=O)C(F)(F)F)cc1-c1cn(C)c(=O)n(C)c1=O [Compound 42] , state its recorded Plant response rating, Ragweed.
A: 80

Q: Bench note: what Plant response rating, Ragweed did Cc1cc(C)c(C2=NOC3(CCC4(CC3)OCCO4)C2)cc1NS(=O)(=O)C(F)(F)F [Compound 135] show?
A: 80

Q: Recorded Plant response rating, Ragweed for Cc1cc(C)c(C(=O)N2CCCOCC2)cc1NS(=O)(=O)C(F)(F)F [Compound 160] , please?
A: 90

Q: Plant response rating, Ragweed lookup needed for Cc1cc(Cl)c(NS(=O)(=O)C(F)(F)F)cc1C(=O)N1CCC(Cl)CC1 [Compound 224] , thanks.
A: 80

Q: Consider the compound COC(=O)N(c1cc(-c2ccnn(C)c2=O)c(C)cc1C)S(=O)(=O)C(F)(F)F [Compound 53] and give its measured Plant response rating, Ragweed.
A: 40

Q: Which Plant response rating, Ragweed is reported for this compound? CCCn1nccc(-c2cc(NS(=O)(=O)C(F)(F)F)c(C)cc2C)c1=O [Compound 58]
A: 0

Q: Can you look up the measured Plant response rating, Ragweed of Cc1cc(C)c(C2=NOC3(CCC(F)(F)CC3)C2)cc1NS(=O)(=O)C(F)(F)F [Compound 172] for me?
A: 90

Q: Bench note: what Plant response rating, Ragweed did CCn1nc(C)cc(-c2cc(NS(=O)(=O)C(F)(F)F)c(C)cc2C)c1=O [Compound 68] show?
A: 90

This collection of values is drawn from patent US20230278972A1.
